Test system: OCI-AML2
assay.procedure: cell viability relative to vehicle control; higher = less cytotoxic;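 also: after 48 h exposure read by CellTiter-Glo luminescence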
condition.details: 10 µM; SRSF2 genotype: wt/wt

molecule: COc1cc2c(cc1Cc1cccc(Cl)c1F)c(=O)c(C(=O)O)cn2[C@H](CO)C(C)C
units.of.measure: %
cell viability: 15.9

molecule: COc1cn(-c2ccc(-n3cccn3)cc2F)nc(-c2ccnn2-c2ccccc2)c1=O
units.of.measure: %
cell viability: 117

molecule: CC(C)OC(=O)CCC/C=C\C[C@@H]1[C@@H](/C=C/C(F)(F)COc2ccccc2)[C@H](O)C[C@@H]1O
units.of.measure: %
cell viability: 95

molecule: C=CCNC(N)=S
units.of.measure: %
cell viability: 110

molecule: CN1CCN(Cc2ccc(NC(=O)Cc3ccc(Oc4cc(NC(=O)C5CC5)ncn4)cc3)cc2C(F)(F)F)CC1
units.of.measure: %
cell viability: 5.81

molecule: O=C1N=C(O)NC1(c1ccccc1)c1ccccc1 [Phenytoin sodium (Dilantin)]
units.of.measure: %
cell viability: 94

molecule: Clc1ccc2c(c1)CCc1cccnc1C2=C1CCNCC1
units.of.measure: %
cell viability: 81.9

molecule: C1=Cc2ccccc2Nc2ccccc21
units.of.measure: %
cell viability: 92.6

molecule: CC1(C)S[C@@H]2[C@H](NC(=O)[C@H](N)c3ccc(O)cc3)C(=O)N2[C@H]1C(=O)O
units.of.measure: %
cell viability: 105

molecule: CCOC(=O)C=P(c1ccccc1)(c1ccccc1)c1ccccc1 [Ethyl (triphenylphosphoranylidene) acetate]
units.of.measure: %
cell viability: 84.8

molecule: O=C(Cc1ccc(-c2ccc(OCCN3CCOCC3)cc2)cn1)NCc1ccccc1
units.of.measure: %
cell viability: 8.35

molecule: O=c1[nH]c(=O)n([C@H]2C[C@H](O)[C@@H](CO)O2)cc1Br
units.of.measure: %
cell viability: 99.9

molecule: CC(C)(C)C(=O)Oc1ccc(S(=O)(=O)Nc2ccccc2C(=O)NCC(=O)O)cc1 [Sivelestat sodium tetrahydrate]
units.of.measure: %
cell viability: 99.2

molecule: OCCc1c[nH]c2ccccc12
units.of.measure: %
cell viability: 111

molecule: CC1(C)CCCC2(C)OC(=O)C=C12 (stereo not given) [Dihydroactinidiolide]
units.of.measure: %
cell viability: 104

====

cell viability overview
Test system: MARIMO
assay.procedure: cell viability relative to vehicle control; higher = less cytotoxic
condition.details: 10 µM; SRSF2 genotype: SRSF2 wt/wt
measured.quantity: cell viability

compound: CC(=O)N1CCN(c2ccc(NC(=O)Cc3cnc(-c4ccnc(F)c4)c(C)c3)nc2)CC1
system.under.test: MARIMO
assay.result: 97.8%

compound: CC1(C)S[C@@H]2[C@H](NC(=O)C(C(=O)O)c3ccccc3)C(=O)N2[C@H]1C(=O)O (stereo partly drawn) [Carbenicillin disodium]
system.under.test: MARIMO
assay.result: 98.8%

compound: Nc1ccc(S(N)(=O)=O)cc1 [Sulfanilamide]
system.under.test: MARIMO
assay.result: 107%

====

Test system: K562
assay.procedure: cell viability relative to vehicle control; higher = less cytotoxic
condition.details: 10 µM; SRSF2 genotype: SRSF2 wt/wt
Counter-ions that a name gives are not always drawn.
# cell viability per entry

compound: O=C(NC1(c2ccccc2)CC1)c1c(CN2CCC(N3CCCCC3)CC2)c(-c2cccc(C(F)(F)F)c2)nc2cc(Br)ccc12
cell viability [%]: 11.8
//
compound: COc1c(C)cnc(Cn2cnc3c(Cl)nc(N)nc32)c1C
cell viability [%]: 29.2
//
compound: COc1ccc(C=O)c(O)c1 [4-Methoxysalicylaldehyde]
cell viability [%]: 97.8
//
compound: Cc1c(O)c(=O)ccn1C [Deferiprone]
cell viability [%]: 93.6
//
compound: COCCCOc1cc(C[C@@H](C[C@H](N)[C@@H](O)C[C@H](C(=O)NCC(C)(C)C(N)=O)C(C)C)C(C)C)ccc1OC [Aliskiren Hemifumarate]
cell viability [%]: 95.5
//
compound: CNC(=O)c1nn(C)c2c1C(C)(C)Cc1cnc(Nc3ccc(N4CCN(C)CC4)cc3)nc1-2
cell viability [%]: 25.2
//
compound: O=c1c2ccccc2nc(C=Cc2cccnc2)n1Cc1ccccc1
cell viability [%]: 79.8
//
compound: CN(C)CCC[C@@]1(c2ccc(F)cc2)OCc2cc(C#N)ccc21 [Escitalopram Oxalate]
cell viability [%]: 92.8
//
compound: NCCNc1ccc(NCCN)c2c1C(=O)c1ccncc1C2=O [Pixantrone Maleate]
cell viability [%]: 20.5
//
compound: CCCCC(F)(F)[C@@]1(O)CC[C@H]2[C@@H](CC(=O)[C@@H]2CCCCCCC(=O)O)O1 [Lubiprostone]
cell viability [%]: 104
//
compound: CCOC(=O)C1=C(C)NC(=S)NC1c1cccc(O)c1 (centres undefined) [Monastrol]
cell viability [%]: 103
//
compound: CC1=C(CC[C@@H](C)CO[C@@H]2O[C@H](CO)[C@@H](O)[C@H](O)[C@H]2O)O[C@H]2C[C@H]3[C@@H]4CC=C5C[C@@H](O[C@@H]6O[C@H](CO)[C@@H](O[C@@H]7O[C@@H](C)[C@H](O)[C@@H](O)[C@H]7O)[C@H](O)[C@H]6O[C@@H]6O[C@@H](C)[C@H](O)[C@@H](O)[C@H]6O)CC[C@]5(C)[C@H]4CC[C@]3(C)[C@@H]12 [Pseudoprotodioscin]
cell viability [%]: 110
//
compound: CCN(CC)CCOC(=O)C(c1ccccc1)c1ccccc1 [Adiphenine HCl]
cell viability [%]: 85.9
//
compound: CC(C)(CO)C(O)C(=O)NCCC(=O)O [Calcium D-Panthotenate]
cell viability [%]: 95.3

====

Measured cell viability, listed per entry.
System: MARIMO
assay.procedure: cell viability relative to vehicle control; higher = less cytotoxic
condition.details: 10 µM; SRSF2 genotype: SRSF2 P95H/wt
Structures can show the parent of a compound that is named as a salt.

compound: O=c1[nH]cnc2c1ncn2[C@@H]1O[C@H](CO)[C@@H](O)[C@H]1O
units.of.measure: %
cell viability: 102
//
compound: CCC(=O)OCC(=O)[C@@]1(OC(=O)CC)[C@@H](C)C[C@H]2[C@@H]3CCC4=CC(=O)C=C[C@]4(C)[C@@]3(F)[C@@H](O)C[C@@]21C [Betamethasone Dipropionate (Diprolene)]
units.of.measure: %
cell viability: 106
//
compound: CC(OC(=O)OC1CCCCC1)OC(=O)C1=C(CSc2nnnn2CCN(C)C)CS[C@@H]2[C@H](NC(=O)Cc3csc(N)n3)C(=O)N12 (stereo partly drawn) [Cefotiam Hexetil Hydrochloride]
units.of.measure: %
cell viability: 87.5

====

Entries annotated with measured cell viability
System: K562
assay.procedure: cell viability relative to vehicle control; higher = less cytotoxic
condition.details: 10 µM; SRSF2 genotype: SRSF2 wt/wt
Structures can show the parent of a compound that is named as a salt.
measured.quantity: cell viability

molecule: C/C=C(/C)C(=O)OC(=O)/C(C)=C\C [Angelic anhydride]
assay.result: 113%

molecule: CC(C)(Oc1ccc(Cl)cc1)C(=O)OCCOC(=O)c1cccnc1 [Etofibrate]
assay.result: 95.4%

molecule: COc1cc2ncnc(Nc3cccc(Cl)c3)c2cc1OC
assay.result: 76.4%

molecule: C[C@H](Nc1ncnc2nc[nH]c12)c1cc2cccc(Cl)c2c(=O)n1-c1ccccc1
assay.result: 94.3%

molecule: CN(C/C=C/C#CC(C)(C)C)Cc1cccc2ccccc12
assay.result: 103%

molecule: CCc1ccc(-c2nc(CSCC(=O)NCCc3ccccc3)c(C)o2)cc1
assay.result: 94.9%

molecule: CC(C)=CCC[C@](C)(O)[C@H]1CC[C@]2(C)[C@@H]1[C@H](O)C[C@@H]1[C@@]3(C)CC[C@H](O[C@@H]4O[C@H](CO)[C@@H](O)[C@H](O)[C@H]4O[C@@H]4O[C@H](CO)[C@@H](O)[C@H](O)[C@H]4O)C(C)(C)[C@@H]3CC[C@]12C [20S-Ginsenoside Rg3]
assay.result: 101%

molecule: CCc1c2c(nc3ccc(O)cc13)-c1cc3c(c(=O)n1C2)COC(=O)[C@]3(O)CC
assay.result: 13.4%

molecule: Cc1cn([C@H]2C[C@H](N=[N+]=[N-])[C@@H](CO)O2)c(=O)[nH]c1=O [Zidovudine (Retrovir)]
assay.result: 101%

molecule: NC(=O)[C@@H](CCC(F)(F)F)N(Cc1ccc(-c2ncon2)cc1F)S(=O)(=O)c1ccc(Cl)cc1
assay.result: 93.9%

molecule: CCc1nc(N)nc(N)c1-c1ccc(Cl)cc1
assay.result: 36.4%

molecule: CC(C)N(CCC(=O)c1ccc2ccccc2c1)Cc1ccccc1
assay.result: 13.9%

molecule: CS(=O)(=O)Nc1cc2occ(NC=O)c(=O)c2cc1Oc1ccccc1
assay.result: 110%

molecule: COC(=O)C1(C)CCC2(C(=O)O)CCC3(C)C(=CCC4C5(C)CC(O)C(O)C(C)(CO)C5CCC43C)C2C1 (stereo not drawn)
assay.result: 113%

molecule: COc1ccc2cc(C(=O)O)ccc2c1
assay.result: 94.2%

molecule: CCCc1nc(C(C)(C)O)c(C(=O)OCc2oc(=O)oc2C)n1Cc1ccc(-c2ccccc2-c2nnn[nH]2)cc1
assay.result: 106%

molecule: CCOC(=O)c1cccc(N)c1 [Ethyl 3-Aminobenzoate methanesulfonate]
assay.result: 85.1%

molecule: CCCc1cc(-c2nc(-c3ccc(C)cc3)cs2)ccn1
assay.result: 39%

molecule: Cc1nc(Nc2ccc(F)cc2)nc(N2CCc3ccccc3C2C)c1C (stereo not drawn) [Revaprazan Hydrochloride]
assay.result: 68.7%

molecule: CN(C)C(=O)c1ccc(S(=O)(=O)c2ccc(NC(=O)C(C)(O)C(F)(F)F)c(Cl)c2)cc1 (stereo not drawn)
assay.result: 74.2%

molecule: C=CC(=O)N1CCN(C(=O)CNc2cc(I)c(Cl)cc2O)CC1 [K-Ras(G12C) inhibitor 12]
assay.result: 75.2%

molecule: COc1cc(C=CC=O)ccc1O
assay.result: 98.5%

molecule: CC1=C[C@]2(O)O[C@@]3(CC2=C(C)C)[C@@H](C)CC[C@@H]13
assay.result: 99.5%
